Just for reference, the supplement of paper PMC4862054 is where these values come from.

# System: Hs578T
# assayExplanation: normalised response (% of control), CellTiter-Glo; higher = more viable cells (100 = DMSO, 0 = benzethonium chloride kill control)
# conditions: incubation time: 72 h
measureName: normalised response (%)
Give the value in % but do not write % after it.

Incoming: normalised response of COc1cc2c(cc1O)CC[C@@H]1[C@@H]2CC[C@]2(C)[C@@H](O)CC[C@@H]12 [2-methoxyestradiol] (1 nM) on Hs578T?
Outgoing: 106

Incoming: normalised response of CC(=O)O[C@@]12CO[C@@H]1C[C@H](O)[C@@]1(C)C(=O)[C@H](O)C3=C(C)[C@@H](OC(=O)[C@H](O)[C@@H](NC(=O)OC(C)(C)C)c4ccccc4)C[C@@](O)([C@@H](OC(=O)c4ccccc4)[C@H]21)C3(C)C [Docetaxel] (1 nM) on Hs578T?
Outgoing: 76.6

Incoming: normalised response of Nc1ncn([C@@H]2O[C@H](CO)[C@@H](O)[C@H]2O)c(=O)n1 [Azacitidine] (1 nM) on Hs578T?
Outgoing: 98.7

###

# Tested on: CAL-51
# assayExplanation: normalised response (% of control), CellTox Green; higher = less cell death (100 = DMSO, 0 = benzethonium chloride kill control)
# conditions: incubation time: 72 h
Outcome: yes (1) for normalised response of at least 80%; no (0) for anything lower.

Incoming: Hi team, for CC1=C2C[C@H]3[C@@H](CC=C4C[C@@H](O)CC[C@@]43C)[C@@H]2CC[C@]12O[C@@H]1C[C@H](C)CN[C@H]1[C@H]2C [Cyclopamine] (1000 nM) , is the recorded normalised response at or above 80%?
Outgoing: yes (1)

Incoming: Hi team, for CC(C)(C)c1cnc(CSc2cnc(NC(=O)C3CCNCC3)s2)o1 [SNS-032] (100 nM) , is the recorded normalised response at or above 80%?
Outgoing: no (0)

Incoming: Hi team, for Cc1sc2c(c1C)C(c1ccc(Cl)cc1)=N[C@@H](CC(=O)OC(C)(C)C)c1nnc(C)n1-2 [(+)JQ1] (1000 nM) , is the recorded normalised response at or above 80%?
Outgoing: yes (1)

Incoming: Hi team, for C[C@]1(O)C[C@@H](c2nc(-c3ccc4ccc(-c5ccccc5)nc4c3)c3c(N)nccn32)C1 [Linsitinib] (1000 nM) , is the recorded normalised response at or above 80%?
Outgoing: yes (1)

Incoming: Hi team, for CC(=O)O[C@@]12CO[C@@H]1C[C@H](O)[C@@]1(C)C(=O)[C@H](O)C3=C(C)[C@@H](OC(=O)[C@H](O)[C@@H](NC(=O)OC(C)(C)C)c4ccccc4)C[C@@](O)([C@@H](OC(=O)c4ccccc4)[C@H]21)C3(C)C [Docetaxel] (10 nM) , is the recorded normalised response at or above 80%?
Outgoing: no (0)

Incoming: Hi team, for Cc1ccc([N+](=O)[O-])cc1S(=O)(=O)N(C)/N=C/c1cnc2ccc(Br)cn12 [PIK-75] (100 nM) , is the recorded normalised response at or above 80%?
Outgoing: no (0)

Incoming: Hi team, for CC1=C2C[C@H]3[C@@H](CC=C4C[C@@H](O)CC[C@@]43C)[C@@H]2CC[C@]12O[C@@H]1C[C@H](C)CN[C@H]1[C@H]2C [Cyclopamine] (100 nM) , is the recorded normalised response at or above 80%?
Outgoing: yes (1)

Incoming: Hi team, for CC[C@@H]1C(=O)OC[C@@H]1Cc1cncn1C [Pilocarpine] (400 nM) , is the recorded normalised response at or above 80%?
Outgoing: yes (1)

Incoming: Hi team, for Nc1ncn([C@@H]2O[C@H](CO)[C@@H](O)[C@H]2O)c(=O)n1 [Azacitidine] (1000 nM) , is the recorded normalised response at or above 80%?
Outgoing: yes (1)

Incoming: Hi team, for C[C@]1(O)C[C@@H](c2nc(-c3ccc4ccc(-c5ccccc5)nc4c3)c3c(N)nccn32)C1 [Linsitinib] (100 nM) , is the recorded normalised response at or above 80%?
Outgoing: yes (1)

Incoming: Hi team, for CC(=O)N(O)CCCCCNC(=O)CCC(=O)N(O)CCCCCNC(=O)CCC(=O)N(O)CCCCCN [Deferoxamine] (100 nM) , is the recorded normalised response at or above 80%?
Outgoing: yes (1)

Incoming: Hi team, for Cc1ccc([N+](=O)[O-])cc1S(=O)(=O)N(C)/N=C/c1cnc2ccc(Br)cn12 [PIK-75] (10000 nM) , is the recorded normalised response at or above 80%?
Outgoing: no (0)

Incoming: Hi team, for CC1(C)CCC(CN2CCN(c3ccc(C(=O)NS(=O)(=O)c4ccc(NCC5CCOCC5)c([N+](=O)[O-])c4)c(Oc4cnc5[nH]ccc5c4)c3)CC2)=C(c2ccc(Cl)cc2)C1 [ABT-199] (10000 nM) , is the recorded normalised response at or above 80%?
Outgoing: yes (1)

Incoming: Hi team, for Cc1sc2c(c1C)C(c1ccc(Cl)cc1)=N[C@@H](CC(=O)OC(C)(C)C)c1nnc(C)n1-2 [(+)JQ1] (10000 nM) , is the recorded normalised response at or above 80%?
Outgoing: no (0)
